Taken from ChEMBL document CHEMBL4052601.

# System: Homo sapiens
# assay-procedure: Inhibition of LPS-induced NF-kappaB (unknown origin) transactivation expressed in human SW480 cells at 10 uM administered 1 hr after LPS stimulation measured after 6 hrs by luciferase reporter gene assay relative to control
# Assay type: cell-based
property-label: inhibition (%)
A number alone suffices; assume %.

[Q] Using known records, supply inhibition for CC1(C)C=Cc2cc([C@@H]3CC(=O)c4ccc5c(c4O3)C=CC(C)(C)O5)ccc2O1
[A] 0

[Q] Using known records, supply inhibition for COc1ccc2c(c1)O[C@H]1c3ccc(O)c(CC=C(C)C)c3OC[C@@H]21
[A] 0

[Q] Using known records, supply inhibition for CC(C)=CCc1cc(/C=C/C(=O)c2ccc(O)c(CC=C(C)C)c2O)ccc1O
[A] 0

[Q] Using known records, supply inhibition for O=C1C[C@@H](c2ccc(O)cc2)Oc2cc(O)ccc21
[A] 0

[Q] Using known records, supply inhibition for O=C(/C=C/c1ccc(O)cc1)c1ccc(O)cc1O
[A] 17.1

[Q] Using known records, supply inhibition for CC(C)=CCc1c(O)ccc(C(=O)/C=C/c2cc(O)c3c(c2)C=CC(C)(C)O3)c1O
[A] 23.1

[Q] Using known records, supply inhibition for COc1ccc(C2COc3c(ccc(O)c3CC=C(C)C)C2=O)c(O)c1 (configuration not stated)
[A] 0

###

# Test system: A549
# assay-procedure: Antiproliferative activity against human A549 cells at 10 uM after 24 hrs by MTS assay relative to control
# Assay type: functional
# assay-setup: A549, 24 h
# cutoff 4% applies to inhibition at 10 µM; >= gives True, < gives False

[Q] I'd appreciate it if you could say whether CC1(C)C=Cc2c(cc(O)c3c2OCC(c2ccc(O)cc2O)C3=O)O1 (configuration not stated) has inhibition at 10 µM at least equal to 4%.
[A] True

[Q] I'd appreciate it if you could say whether CC(C)=CCc1cc([C@@H]2CC(=O)c3ccc(O)c(CC=C(C)C)c3O2)ccc1O has inhibition at 10 µM at least equal to 4%.
[A] False

[Q] I'd appreciate it if you could say whether CC1(C)C=Cc2c(ccc3c2OC[C@H]2c4ccc(O)cc4O[C@@H]32)O1 has inhibition at 10 µM at least equal to 4%.
[A] False

[Q] I'd appreciate it if you could say whether CC1(C)C=Cc2c(ccc(-c3coc4cc(O)ccc4c3=O)c2O)O1 has inhibition at 10 µM at least equal to 4%.
[A] False

[Q] I'd appreciate it if you could say whether COc1ccc([C@@H]2COc3c(ccc4c3C=CC(C)(C)O4)C2)c(O)c1O has inhibition at 10 µM at least equal to 4%.
[A] True

[Q] I'd appreciate it if you could say whether CC1(C)C=Cc2c(ccc3c2OCc2c-3oc3cc(O)ccc23)O1 has inhibition at 10 µM at least equal to 4%.
[A] False

[Q] I'd appreciate it if you could say whether CC(C)=CCc1cc([C@@H]2CC(=O)c3ccc4c(c3O2)C=CC(C)(C)O4)ccc1O has inhibition at 10 µM at least equal to 4%.
[A] True

[Q] I'd appreciate it if you could say whether CC(C)=CCc1cc(C[C@@H](O)C(=O)c2cc(CC=C(C)C)c(O)cc2O)ccc1O has inhibition at 10 µM at least equal to 4%.
[A] True

[Q] I'd appreciate it if you could say whether CC(C)=CCc1c(O)ccc2c1O[C@H](c1ccc3c(c1)C=CC(C)(C)O3)CC2=O has inhibition at 10 µM at least equal to 4%.
[A] False

[Q] I'd appreciate it if you could say whether CC1(C)C=Cc2cc(/C=C/C(=O)c3ccc(O)cc3O)ccc2O1 has inhibition at 10 µM at least equal to 4%.
[A] False

[Q] I'd appreciate it if you could say whether O=C1C[C@@H](c2ccc(O)cc2)Oc2cc(O)ccc21 has inhibition at 10 µM at least equal to 4%.
[A] False

[Q] I'd appreciate it if you could say whether CC(C)=CCc1c(O)ccc(C(=O)/C=C/c2ccc(O)cc2)c1O has inhibition at 10 µM at least equal to 4%.
[A] False
